# Measured on: MMP-13 (Homo sapiens)
# Construct: made in house; host or cells: baculovirus / insect cells
# Assay overview: In vitro MMP inhibition, Ki determination (fluorogenic substrate II)
# Type: biochemical
# Condition label: value not in parenthesis; read-out: MMP-13 Ki
pKi: −log10 of the molar value.
Values of pKi greater than or equal to 9 map to Fulfilled; values below map to Not fulfilled.

Use these answered entries as a reference point.
Lookup: API: above_or_equal(metric=pKi, cutoff=9) for item CCN1CCC(C(=O)NO)(S(=O)(=O)N2CCN(c3ccc(OCCCC(F)(F)F)cc3)CC2)CC1
Found: Fulfilled

Lookup: API: above_or_equal(metric=pKi, cutoff=9) for item COc1ccc(-c2ccc(N3CCN(S(=O)(=O)C4(C(=O)NO)CCOCC4)CC3)nc2)cc1
Found: Fulfilled

Lookup: API: above_or_equal(metric=pKi, cutoff=9) for item CCCCCc1ccc(N2CCN(S(=O)(=O)C3(C(=O)NO)CCOCC3)CC2)nc1
Found: Fulfilled

Lookup: API: above_or_equal(metric=pKi, cutoff=9) for item CCCCc1ccc(N2CCN(S(=O)(=O)C3(C(=O)NO)CCN(c4cccnc4)CC3)CC2)nc1
Found: Fulfilled

Continuing:
Lookup: API: above_or_equal(metric=pKi, cutoff=9) for item CCCCOc1ccc(N2CCN(S(=O)(=O)C3(C(=O)NO)CCOCC3)CC2)cc1
Found: Fulfilled

Lookup: API: above_or_equal(metric=pKi, cutoff=9) for item CCCCCCc1ccc(N2CCN(S(=O)(=O)C3(C(=O)NO)CCN(CCOC)CC3)CC2)cc1
Found: Fulfilled

Lookup: API: above_or_equal(metric=pKi, cutoff=9) for item CCCCOc1ccc(N2CCN(S(=O)(=O)C3(C(=O)NO)CCN(C(=O)c4ccco4)CC3)CC2)cc1
Found: Fulfilled

Lookup: API: above_or_equal(metric=pKi, cutoff=9) for item CCCCCCCCCc1cnc(N2CCN(S(=O)(=O)C3(C(=O)NO)CCOCC3)CC2)nc1 [Example 111]
Found: Not fulfilled

Lookup: API: above_or_equal(metric=pKi, cutoff=9) for item Cc1ccc(N2CCC(C(=O)NO)(S(=O)(=O)N3CCN(c4ccc(OCCCC(F)(F)F)cc4)CC3)CC2)cc1
Found: Not fulfilled

Lookup: API: above_or_equal(metric=pKi, cutoff=9) for item O=C(NO)C1(S(=O)(=O)N2CCN(c3ccc(OCCCC(F)(F)F)cn3)CC2)CCOCC1
Found: Fulfilled

Lookup: API: above_or_equal(metric=pKi, cutoff=9) for item O=C(NO)C1(S(=O)(=O)N2CCN(c3ccc(OC(F)(F)C(F)F)cc3)CC2)CCSCC1
Found: Fulfilled

Lookup: API: above_or_equal(metric=pKi, cutoff=9) for item O=C(NO)C1(S(=O)(=O)N2CCN(c3ncccn3)CC2)CCOCC1 [Example 106]
Found: Not fulfilled

Lookup: API: above_or_equal(metric=pKi, cutoff=9) for item CCCCOc1ccc(N2CCN(S(=O)(=O)C3(C(=O)NO)CCOCC3)CC2)nc1
Found: Fulfilled

Lookup: API: above_or_equal(metric=pKi, cutoff=9) for item COCCN1CCC(C(=O)NO)(S(=O)(=O)N2CCN(c3nc4ccccc4o3)CC2)CC1
Found: Not fulfilled

Lookup: API: above_or_equal(metric=pKi, cutoff=9) for item CCCCc1ccc(N2CCN(S(=O)(=O)C3(C(=O)NO)CCN(c4ccc(C)cc4)CC3)CC2)cc1
Found: Not fulfilled

Lookup: API: above_or_equal(metric=pKi, cutoff=9) for item CCCCOc1ccc(N2CCN(S(=O)(=O)C3(C(=O)NO)CCN(c4ccc(OC(F)(F)C(F)F)cc4)CC3)CC2)cc1
Found: Not fulfilled

Lookup: API: above_or_equal(metric=pKi, cutoff=9) for item O=C(NO)C1(S(=O)(=O)N2CCN(c3ccc(-c4ccc(F)cc4)cc3)CC2)CCOCC1
Found: Fulfilled

Lookup: API: above_or_equal(metric=pKi, cutoff=9) for item CCCCCc1ccc(N2CCN(S(=O)(=O)C3(C(=O)NO)CCN(C(C)=O)CC3)CC2)cc1
Found: Fulfilled

Lookup: API: above_or_equal(metric=pKi, cutoff=9) for item O=C(NO)C1(S(=O)(=O)N2CCN(c3nncs3)CC2)CCOCC1
Found: Not fulfilled

Lookup: API: above_or_equal(metric=pKi, cutoff=9) for item COCCN1CCC(C(=O)NO)(S(=O)(=O)N2CCN(c3ccc(OCCCC(F)(F)F)cc3F)CC2)CC1
Found: Fulfilled

Lookup: API: above_or_equal(metric=pKi, cutoff=9) for item O=C(NO)C1(S(=O)(=O)N2CCN(c3ccc(OCCCC(F)(F)F)cc3)CC2)CCN(C2CC2)CC1
Found: Fulfilled

Reference source: patent US20050209278A1
